Sourced from patent US20140308317A1

# System: HepG2, HB-8065
# Protocol Notes: Cytotoxicity colorimetric (tetrazolium) assay
# Type: cell-based, human
# Measurement Parameters: HepG2 cells; one hour with compound in serum-free media

| Compound | EC50 HepG2 (cytotoxicity) (µg/mL) |
| --- | --- |
| N=C(N)NCCCc1cccc(-c2cc(-c3cccc(CCCNC(=N)N)c3)cc(C(F)(F)F)c2)c1 [Compound 114] | 60.6 |
| NCCN(CCN)Cc1ccc(F)c(-c2ccc3sc4ccc(-c5cc(CN(CCN)CCN)ccc5F)cc4c3c2)c1 [Compound 180] | 104 |
| c1cc(CN2CCNCC2)cc(-c2ccc3sc4ccc(-c5cccc(CN6CCNCC6)c5)cc4c3c2)c1 [Compound 175] | 19.4 |
| NCCCOc1cc(OCCCN)cc(-c2ccc3sc4ccc(-c5cc(OCCCN)cc(OCCCN)c5)cc4c3c2)c1 [Compound 200] | 126 |
| NCCCNC(=O)c1cc(C(=O)NCCCN)cc(-c2ccc3sc4ccc(-c5cc(C(=O)NCCCN)cc(C(=O)NCCCN)c5)cc4c3c2)c1 [Compound 171] | 236 |

---

# Protocol Notes: Cytotoxicity colorimetric (tetrazolium) assay
# Assay type: cell-based, mouse
# Measurement Parameters: mouse, NIH/3T3 cells (CRL-1658), NIH/3T3 cells; one hour with compound in serum-free media

| Chem Smiles | Unit Spec | EC50 at 1 h |
| --- | --- | --- |
| N=C(N)NCC#Cc1cc(C#CCNC(=N)N)cc(-c2cccc(-c3cc(C#CCNC(=N)N)cc(C#CCNC(=N)N)c3)c2)c1 | µg/mL | 115 |
| N=C(N)NCCc1cc(C#Cc2cc(C#Cc3cc(CCNC(=N)N)cc(CCNC(=N)N)c3)c(F)cc2F)cc(CCNC(=N)N)c1 | µg/mL | 62.4 |
| NCCCN1c2ccccc2Sc2ccccc21 | µg/mL | 13 |

---

# Test system: Pseudomonas aeruginosa ATCC 10145
# Protocol Notes: Minimum Inhibitory Concentration (MIC), modified microbroth dilution
# Assay type: cell-based
# Measurement Parameters: P. aeruginosa (10145); overnight incubation (18 hours)

| Compound | Unit Spec | MIC50 P. Aeruginosa |
| --- | --- | --- |
| NCCN(CCN)Cc1ccc(F)c(-c2ccc3sc4ccc(-c5cc(CN(CCN)CCN)ccc5F)cc4c3c2)c1 [Compound 180] | µg/mL | 3.13 |
| NCCC#Cc1cc(-c2cc(OCCCN)cc(-c3cc(C#CCCN)cc(C(F)(F)F)c3)c2)cc(C(F)(F)F)c1 [Compound 122] | µg/mL | 12.5 |
| Cc1cc(-c2cc(OCCCN)cc(OCCCN)c2)cc(-c2cc(C)cc(-c3cc(OCCCN)cc(OCCCN)c3)c2)c1 [Compound 147] | µg/mL | 6.25 |
| O=C(Nc1ccc(-c2ccnc(N3CCNCC3)c2)cc1F)Nc1ccc(-c2ccnc(N3CCNCC3)c2)cc1F [Compound 142] | µg/mL | 25 |
| NCCCOc1cc(OCCCN)cc(-c2cc(-c3cc(-c4cc(OCCCN)cc(OCCCN)c4)cc(C(F)(F)F)c3)cc(C(F)(F)F)c2)c1 [Compound 146] | µg/mL | 6.25 |
| N=C(N)NCCc1cc(CCNC(=N)N)cc(-c2cc(F)cc(-c3cc(F)cc(-c4cc(CCNC(=N)N)cc(CCNC(=N)N)c4)c3)c2)c1 [Compound 151] | µg/mL | 12.5 |
| NCCN(CCN)Cc1cccc(-c2ccc3[nH]c4ccc(-c5cccc(CN(CCN)CCN)c5)cc4c3c2)c1 [Compound 179] | µg/mL | 25 |

---

# Protocol Notes: Cytotoxicity colorimetric (tetrazolium) assay
# Format: cell-based, human
# Measurement Parameters: human, HepG2 cells (HB-8065), HepG2 cells; one hour with compound in serum-free media
Decide using EC50 at 1 h alone. Strictly below 200 µg/mL: Condition met. Equal to or above 200 µg/mL: Condition not met.

| Compound | Category Label |
| --- | --- |
| NCCCn1c2cc(-c3cccc(N)c3)ccc2c2ccc(-c3cccc(N)c3)cc21 | Condition met |
| NCCCn1c2cc(-c3cccc(CN(CCN)CCN)c3)ccc2c2ccc(-c3cccc(CN(CCN)CCN)c3)cc21 | Condition not met |
| NCCCn1cc(-c2ccc3oc4ccc(-c5cnn(CCCN)c5)cc4c3c2)cn1 | Condition not met |
| N=C(N)NCCc1cc(C#Cc2cc(C#Cc3cc(CCNC(=N)N)cc(CCNC(=N)N)c3)c(F)cc2F)cc(CCNC(=N)N)c1 | Condition met |
| N=C(N)NCCCc1cccc(-c2ccc3c4ccc(-c5cccc(CCCNC(=N)N)c5)cc4n(CCCNC(=N)N)c3c2)c1 | Condition met |
| NCCc1cc(C#Cc2ccc(C#Cc3cc(CCN)cc(CCN)c3)cc2)cc(CCN)c1 | Condition met |
| NCCCOc1cc(OCCCN)cc(-c2ccc3c(c2)C(=O)c2cccc(-c4cc(OCCCN)cc(OCCCN)c4)c2CC3)c1 | Condition not met |
| NCCCOc1cc(OCCCN)cc(-c2cccc(-c3cccc(-c4cc(OCCCN)cc(OCCCN)c4)c3)c2)c1 | Condition not met |
| NCCc1cc(CCN)cc(-c2cccc(-c3cc(CCN)cc(CCN)c3)c2)c1 | Condition not met |
| NCCc1cccc(-c2coc(-c3cccc(-c4ncco4)c3)n2)c1 | Condition met |
| NCCc1cc(CCN)cc(-c2csc(-c3cccc(-c4nc(-c5cc(CCN)cc(CCN)c5)cs4)c3)n2)c1 | Condition met |
| N=C(N)NCCc1cccc(-c2coc(-c3cccc(-c4nc(-c5cccc(CCNC(=N)N)c5)co4)c3)n2)c1 | Condition met |
| N=C(N)NCC(CNC(=N)N)c1cc(Br)cc(C#Cc2cccc(C#Cc3cc(Br)cc(C(CNC(=N)N)CNC(=N)N)c3)c2)c1 (centres unmarked) | Condition met |
| NCCCN1c2ccccc2Sc2ccccc21 | Condition met |
| NCCCOc1cc(OCCCN)cc(-c2ccc(C(=O)c3ccc(-c4cc(OCCCN)cc(OCCCN)c4)cc3)cc2)c1 | Condition not met |
| NCCc1cccc(-c2coc(-c3cccc(-c4nc(-c5cccc(CCN)c5)co4)c3)n2)c1 | Condition met |
| O=C(c1cc(C(=O)N2CCNCC2)cc(-c2ccc3sc4ccc(-c5cc(C(=O)N6CCNCC6)cc(C(=O)N6CCNCC6)c5)cc4c3c2)c1)N1CCNCC1 | Condition not met |
| N=C(N)NCCc1cc(C#Cc2cccc(C#Cc3cc(CCNC(=N)N)cc(CCNC(=N)N)c3)c2)cc(CCNC(=N)N)c1 | Condition not met |
| NCCCOc1cc(OCCCN)cc(-c2ccc3c(c2)C(=O)c2cc(-c4cc(OCCCN)cc(OCCCN)c4)ccc2CC3)c1 | Condition met |
| NCCCn1c2cc(Br)ccc2c2ccc(Br)cc21 | Condition met |
| N=C(N)NCCc1cc(CCNC(=N)N)cc(-c2cccc(-c3cc(CCNC(=N)N)cc(CCNC(=N)N)c3)c2)c1 | Condition not met |
| NCCCOc1cc(OCCCN)cc(-c2ccc(C(F)(F)c3ccc(-c4cc(OCCCN)cc(OCCCN)c4)cc3)cc2)c1 | Condition met |
| NCCc1cc(CCN)cc(-c2csc(-c3cccc(-c4nccs4)c3)n2)c1 | Condition met |
| NCCCn1c2cc(-c3cccc(N(CCN)CCN)c3)ccc2c2ccc(-c3cccc(N(CCN)CCN)c3)cc21 | Condition not met |
| N=C(N)NCCc1cccc(-c2cc(-c3cccc(-c4cc(-c5cccc(CCNC(=N)N)c5)on4)c3)no2)c1 | Condition met |
| NCCc1cc(C#Cc2cc(C#Cc3cc(CCN)cc(CCN)c3)c(F)cc2F)cc(CCN)c1 | Condition not met |
| N=C(N)NCCc1ccc(C#Cc2cccc(C#Cc3ccc(CCNC(=N)N)c(CCNC(=N)N)c3)c2)cc1CCNC(=N)N | Condition met |
| O=C(Nc1ccc(-c2ccc(N3CCNCC3)nc2)cc1F)Nc1ccc(-c2ccc(N3CCNCC3)nc2)cc1F | Condition met |
| N=C(N)NCCCOc1cc(OCCCNC(=N)N)cc(-c2ccc3sc4ccc(-c5cc(OCCCNC(=N)N)cc(OCCCNC(=N)N)c5)cc4c3c2)c1 | Condition met |

---

# Tested on: NIH/3T3 cells, CRL-1658
# Protocol Notes: Cytotoxicity colorimetric (tetrazolium) assay
# Type: cell-based, mouse
# Measurement Parameters: NIH/3T3 cells; one hour with compound in serum-free media
# Experimental: Cytotoxicity of the compounds was evaluated in a colorimetric assay using a transformed human liver cell line (HepG2, HB-8065) and an embryonic mouse cell line (NIH/3T3 cells, CRL-1658). […] After incubation, the media is replaced with serum supplemented media and live cells were measured using the Cell Titer 96 Aqueous […] Assay kit (Promega, Madison, Wis.). EC50 values were determined using a four parameter logistic equation: Y=Bottom+(Top-Bottom)/(1+10̂((LogEC50−X)*HillSlope)). […]
Measured EC50 NIH 3T3 (cytotoxicity) accompanies every entry in the list below.
Reported Property: EC50 NIH 3T3 (cytotoxicity) (mg/L)

| Chem Smiles | Value Observed |
| --- | --- |
| NCCNC(=O)c1cc(C(=O)NCCN)cc(-c2ccc3oc4ccc(-c5cc(C(=O)NCCN)cc(C(=O)NCCN)c5)cc4c3c2)c1 | 32.4 |
| NCCCN(CCCN)Cc1cccc(-c2ccc3sc4ccc(-c5cccc(CN(CCCN)CCCN)c5)cc4c3c2)c1 | 83.1 |
| NCCCOc1cc(OCCCN)cc(-c2cc(-c3cc(-c4cc(OCCCN)cc(OCCCN)c4)cc(C(F)(F)F)c3)cc(C(F)(F)F)c2)c1 | 35.82 |
